target: ASCT2 (Rattus norvegicus, UniProt D3ZJ25); assay: ASCT2-mediated 3H-glutamine uptake in C6 cells
Sequence (D3ZJ25 whole entry): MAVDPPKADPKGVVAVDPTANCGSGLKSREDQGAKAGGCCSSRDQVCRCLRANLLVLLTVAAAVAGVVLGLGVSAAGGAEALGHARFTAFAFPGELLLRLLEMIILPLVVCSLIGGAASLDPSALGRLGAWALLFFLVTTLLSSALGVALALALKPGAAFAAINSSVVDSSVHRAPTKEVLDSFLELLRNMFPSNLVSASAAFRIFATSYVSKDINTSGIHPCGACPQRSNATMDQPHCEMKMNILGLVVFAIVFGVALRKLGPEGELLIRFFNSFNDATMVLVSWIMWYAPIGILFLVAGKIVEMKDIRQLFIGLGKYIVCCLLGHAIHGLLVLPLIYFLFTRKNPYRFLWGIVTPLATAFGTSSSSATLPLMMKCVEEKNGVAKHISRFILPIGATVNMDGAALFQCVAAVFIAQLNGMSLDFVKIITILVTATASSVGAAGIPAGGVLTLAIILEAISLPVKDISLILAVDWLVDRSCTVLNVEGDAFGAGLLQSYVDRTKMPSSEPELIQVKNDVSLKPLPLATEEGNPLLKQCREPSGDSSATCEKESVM
pIC50: −log10 of the molar value.

Compound: Cc1cccc(COc2ccccc2CN(CC[C@H](N)C(=O)O)Cc2ccccc2OCc2cccc(C)c2)c1 [Compound 17]
pIC50: 5.05

All figures here come from paper PMC4727990.
